Tested on: Staphylococcus aureus Newman
List of MIC values.

COMPOUND: CC(=O)OC1C2OC2C(C)(O)C(=O)C(C)CC=CC2C3OC3(C)C(C)C3C(Cc4ccccc4)NC(=O)C213 (stereo not drawn) [Compound 6, 19,20-epoxycytochalasin Q]
REPORTED PROPERTY: MIC
ASSAY VALUE: > 64 mg/L

COMPOUND: CC(=O)OC1C2OC2C(C)C(=O)C(C)CC=CC2C(O)C(C)=C(C)C3C(Cc4ccccc4)NC(=O)C213 (stereo not drawn) [Compound 5, 18-desoxy-19,20-epoxycytochalasin C]
REPORTED PROPERTY: MIC
ASSAY VALUE: > 64 mg/L

COMPOUND: CC(=O)OC1C2OC2C(C)(O)C(=O)C(C)CC=CC2C3OC3(C)C(C)C3C(Cc4ccccc4)N(C(C)=O)C(=O)C213 (stereo not drawn) [Compound 24, N-acetyl-19,20-epoxycytochalasin Q]
REPORTED PROPERTY: MIC
ASSAY VALUE: > 64 mg/L

Consider the additional compound presented here.
// map CC1=C(C)C2C(Cc3cccc(Cl)c3)NC(=O)C23C(O)C2OC2C(C)(O)C(=O)C(C)CC=CC3C1O (stereo not drawn) [Compound 12] to recorded MIC (system: Staphylococcus aureus Newman) > 64 mg/L

----------
PROTOCOL NOTES: in vitro
Format: in vitro ADME, mouse
CONDITION PARAMETERS: C57BL/6, mouse, microsomes; Table S22; intrinsic clearance calculated from microsomal metabolism data
REPORTED PROPERTY: microsomal CLint
Reply with the number and its unit after it.

// below: answered compounds
COMPOUND: CC(=O)OC1C2OC2C(C)(O)C(=O)C(C)CC=CC2C3OC3(C)C(C)C3C(Cc4cccc(Cl)c4)NC(=O)C213 (stereo not shown)
microsomal CLint: 45.7 µL/min/mg
--
COMPOUND: CC(=O)O[C@@H]1/C=C/[C@@](C)(O)C(=O)[C@@H](C)C/C=C/[C@H]2[C@@H]3O[C@]3(C)[C@@H](C)[C@H]3[C@H](Cc4cccc(Cl)c4)NC(=O)[C@@]312
microsomal CLint: 95 µL/min/mg
--
COMPOUND: CC1CC=CC2C3OC3(C)C(C)C3C(Cc4ccccc4)NC(=O)C23C(O)C2OC2C(C)(O)C1=O (stereo not shown)
microsomal CLint: 14 µL/min/mg

Value lookup for microsomal CLint; key = CC1CC=CC2C3OC3(C)C(C)C3C(Cc4ccccc4Br)NC(=O)C23C(=O)C2OC2C(C)(O)C1=O (stereo not shown) 234 µL/min/mg

----------
List of half-life values.
PROTOCOL NOTES: in vitro
Assay type: in vitro ADME, mouse
CONDITION PARAMETERS: mouse; Table S22; 1 μM compound, 0.5 mg/mL pooled C57BL/6 microsomes; read-out: Mouse liver microsome t1/2
Quick reminder: number only, in min, skip the unit.

COMPOUND: CC1=C(C)C2C(Cc3ccccc3)NC(=O)C23C(O)C2OC2C(C)(O)C(=O)C(C)CC=CC3C1O (stereo not shown) [Compound 4, deacetyl-19,20-epoxycytochalasin C]
half-life [min]: 53.1

COMPOUND: CC(=O)OC1C2OC2C(C)(O)C(=O)C(C)CC=CC2C(O)C(C)=C(C)C3C(Cc4cccc(Cl)c4)NC(=O)C213 (stereo not shown) [Compound 11, m-chloro-19,20-epoxycytochalasin C]
half-life [min]: 26.4

COMPOUND: CC1CC=CC2C3OC3(C)C(C)C3C(Cc4ccccc4)NC(=O)C23C(O)C2OC2C(C)C1=O (stereo not shown) [Compound 1]
half-life [min]: 13.8

Consider the additional compound presented here.
Value lookup for half-life; key = CC(=O)OC1C2OC2C(C)(O)C(=O)C(C)CC=CC2C3OC3(C)C(C)C3C(Cc4ccccc4)N(C(C)=O)C(=O)C213 (stereo not shown) [Compound 24, N-acetyl-19,20-epoxycytochalasin Q] 2.5

----------
System: A549 (human lung carcinoma cell line)
PROTOCOL NOTES: Cytotoxicity assay (MTT, 5 d) on A549
Assay type: cell-based
CONDITION PARAMETERS: Homo sapiens, A549, 120 h, Table S22; MTT, 5 d incubation
List of IC50 values.
Quick reminder: number only, in µg/mL, skip the unit.

// map CC1CC=CC2C3OC3(C)C(C)C3C(Cc4cccc(Cl)c4)NC(=O)C23C(O)C2OC2C(C)(O)C1=O (stereo not drawn) to recorded IC50 (system: A549 (human lung carcinoma cell line)) 0.08

// map CC1=C(C)C2C(Cc3ccccc3)NC(=O)C23C(O)C2OC2C(C)(O)C(=O)C(C)CC=CC3C1O (stereo not drawn) to recorded IC50 (system: A549 (human lung carcinoma cell line)) 1.07

// map CC(=O)OC1C2OC2C(C)(O)C(=O)C(C)CC=CC2C3OC3(C)C(C)C3C(Cc4cccc(Cl)c4)NC(=O)C213 (stereo not drawn) to recorded IC50 (system: A549 (human lung carcinoma cell line)) 0.11

----------
PROTOCOL NOTES: in vitro
Format: in vitro ADME, mouse
CONDITION PARAMETERS: C57BL/6, mouse, microsomes; Table 1; intrinsic clearance from microsomal metabolism data
microsomal CLint strictly less than 50 µL/min/mg = fulfilled. Otherwise not fulfilled.

COMPOUND: CC(=O)OC1C2OC2C(C)(O)C(=O)C(C)CC=CC2C(O)C(C)=C(C)C3C(Cc4ccccc4)NC(=O)C213 (centres unmarked)
ASSIGNED CATEGORY: fulfilled
--
COMPOUND: C=C1C(C)C2C(Cc3ccccc3)NC(=O)C23C(C=CCC(C)C(=O)C(C)(O)C2OC2C3OC(C)=O)C1O (centres unmarked)
ASSIGNED CATEGORY: fulfilled
--
COMPOUND: CC(=O)OC1C(C)=C(C)C2C(Cc3ccccc3)NC(=O)C23C1C=CCC(C)C(=O)C(C)(O)C1OC1C3OC(C)=O (centres unmarked)
ASSIGNED CATEGORY: not fulfilled
--
COMPOUND: CC(=O)OC1C2OC2C(C)C(=O)C(C)CC=CC2C3OC3(C)C(C)C3C(Cc4cccc(Cl)c4)NC(=O)C213 (centres unmarked)
ASSIGNED CATEGORY: not fulfilled
--
COMPOUND: CC(=O)OC1C2OC2C(C)(O)C(=O)C(C)CC=CC2C3OC3(C)C(C)C3C(Cc4cccc(Br)c4)NC(=O)C213 (centres unmarked)
ASSIGNED CATEGORY: not fulfilled
--
COMPOUND: CC1CC=CC2C3OC3(C)C(C)C3C(Cc4cccc(Cl)c4)NC(=O)C23C(O)C2OC2C(C)(O)C1=O (centres unmarked)
ASSIGNED CATEGORY: fulfilled
--
COMPOUND: CC1=C(C)C2C(Cc3cccc(Br)c3)NC(=O)C23C(O)C2OC2C(C)(O)C(=O)C(C)CC=CC3C1O (centres unmarked)
ASSIGNED CATEGORY: fulfilled
--
COMPOUND: CC(=O)OC1C2OC2C(C)(O)C(=O)C(C)CC=CC2C(O)C3(C)OC3(C)C3C(Cc4ccccc4)NC(=O)C213 (centres unmarked)
ASSIGNED CATEGORY: fulfilled
--
COMPOUND: C#CCCC1(CCC(=O)OC2C(C)=C(C)C3C(Cc4ccccc4)NC(=O)C34C2C=CCC(C)C(=O)C(C)(O)C2OC2C4OC(C)=O)N=N1 (centres unmarked)
ASSIGNED CATEGORY: not fulfilled
--
COMPOUND: CC(=O)OC1C2OC2C(C)(O)C(=O)C(C)CC=CC2C(O)C(C)=C(C)C3C(Cc4cccc(Cl)c4)NC(=O)C213 (centres unmarked)
ASSIGNED CATEGORY: not fulfilled

Please let me know if CC(=O)OC1C2OC2C(C)C(=O)C(C)CC=CC2C(O)C(C)=C(C)C3C(Cc4ccccc4)NC(=O)C213 (centres unmarked) shows microsomal CLint below 50 µL/min/mg. not fulfilled

----------
System: CHO-K1 (chinese hamster ovary cells)
PROTOCOL NOTES: Cytotoxicity assay (MTT, 5 d) on CHO-K1
Assay type: cell-based
CONDITION PARAMETERS: Cricetulus griseus, CHO-K1, 120 h, Table 1, 5 d incubation
Method: Cytotoxicity assay: A549 (human lung carcinoma cell line; ACC 107) and CHO-K1 (chinese hamster ovary cells; ACC 110) were obtained from the German Collection of Microorganisms and Cell Cultures (DSMZ) and cultured under the conditions recommended by the depositor. Cells were propagated in Dulbeccos’s Modified Eagle’s Medium (DMEM) and Ham’s F12 medium, respectively, supplemented with 10% fetal bovine serum (FBS), and seeded at 6×10^3 cells per well of 96-well plates in 120 μL of complete medium. […]
List of IC50 values.
Reply with the number and its unit after it.

// below: answered compounds
COMPOUND: CC(=O)OC1C2OC2C(C)C(=O)C(C)CC=CC2C3OC3(C)C(C)C3C(Cc4cccc(Cl)c4)NC(=O)C213 (stereo not drawn)
TARGET DESC: CHO-K1 (chinese hamster ovary cells)
IC50: 0.41 µg/mL

COMPOUND: CC1=C(C)C2C(Cc3cccc(Br)c3)NC(=O)C23C(O)C2OC2C(C)(O)C(=O)C(C)CC=CC3C1O (stereo not drawn)
TARGET DESC: CHO-K1 (chinese hamster ovary cells)
IC50: 0.49 µg/mL

Value lookup for IC50; key = CC(=O)OC1C2OC2C(C)C(=O)C(C)CC=CC2C(O)C(C)=C(C)C3C(Cc4ccccc4)NC(=O)C213 (stereo not drawn) 9.88 µg/mL
